MEASUREMENT_NOTES: NCI Yeast Anticancer Drug Screen. Data for the bub3 strain (AID 167)
CONDITION_CONTEXT: S. cerevisiae bub3 mutant strain, at 5.0 µM (retest, dose inferred, filed as 0.5), active compounds read high
Compounds without any hit were thinned out: in the full panel of roughly 79,000, 15% have a hit. Calls of active or inactive are those of the source. Rule as the data show it: active = growth inhibition above about 70%; inactive = the rest.
growth inhibition values, listed per item
METRIC_NAME: growth inhibition

>>> data_value("O=C1NC(c2cccc(OCc3ccccc3)c2)Nc2ccccc21 (configuration not stated)")
"20% (inactive)"
>>> data_value("C/C1=C/C2OC(=O)C3(C)C2C(CC2(C)OC1=CC2=O)OC3(O)C(C)C (configuration not stated)")
"22% (inactive)"
>>> data_value("O=C1C(/C=C/c2ccc(Cl)cc2)=NNC2N1N=C1NC(=O)C3(NN12)c1ccccc1-c1ccccc13 (configuration not stated)")
"-19% (inactive)"
>>> data_value("CO[C@@]1([C@@H](Cl)c2ccccc2)C(=O)N(C)/C(=C\\c2ccccc2)C(=O)N1C")
"-11% (inactive)"
>>> data_value("CCCCCc1c(CCCC)c(=O)[nH]c2cc(CNCC(OC)OC)ccc12")
"19% (inactive)"
>>> data_value("O=[N+]([O-])c1ccc(C(c2c[nH]c3ccccc23)c2c[nH]c3ccccc23)cc1")
"45% (inactive)"
>>> data_value("OC(CC(O)(C(F)(F)F)C(F)(F)F)c1ccc(C(O)CC(O)(C(F)(F)F)C(F)(F)F)cc1 (configuration not stated)")
"15% (inactive)"

* * *

MEASUREMENT_NOTES: NCI Yeast Anticancer Drug Screen. Data for the rad52 strain (AID 147);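 also: 0% = growth of vehicle-treated control cultures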
CONDITION_CONTEXT: S. cerevisiae rad52 mutant growth inhibition; at 11.0 µM; active compounds read high
This is part of a sample that, as a whole, favours compounds with a hit. Of some 79,000 tested, about 15% had one in any assay.
METRIC_NAME: growth inhibition (%)

>>> data_value("O=S(=O)(c1cccc(C(F)(F)F)c1)N1c2ccccc2-n2cccc2C1c1cccnc1 (stereo not given)")
87
>>> data_value("CCC[CH2][Sn]([CH2]CCC)([CH2]CCC)/[C](=C/[Si](C)(C)c1ccccc1)c1ccc2c(c1)OCO2")
92
>>> data_value("CNC(=O)OCc1c2ccncc2c(C)c2c1[nH]c1ccccc12")
88
>>> data_value("c1ccc2nc3c(nc2c1)sc1ccccc13")
95
>>> data_value("O=C1C(=O)c2cccc([N+](=O)[O-])c2-c2ccccc21")
37
>>> data_value("CCCCCCC=C(C(=O)OCC)C(=O)OCC")
-1
>>> data_value("CN(N=O)C(=O)Nc1ccc(C(=O)O)cc1")
8
>>> data_value("CC/C(=C(\\c1ccccc1)c1ccc(OCC[N+](C)(C)C)cc1)c1ccccc1")
99
>>> data_value("CC(=O)/C=C/c1cccc([N+](=O)[O-])c1")
9
>>> data_value("CC(=O)/C(=C\\c1ccc(Cl)c(Cl)c1)C(=O)C(C)CN(C)C (stereo not given)")
33

* * *

MEASUREMENT_NOTES: NCI Yeast Anticancer Drug Screen. Data for the mec2-1 strain (AID 157)
CONDITION_CONTEXT: S. cerevisiae mec2-1 strain, at 11.0 µM
Procedure: Growth inhibition of yeast strains with defined genetic alterations is measured as a screen for potential anti-cancer activity. Selected strains with alterations in DNA damage repair or cell cycle control were exposed to compounds and growth inhibition was measured relative to vehicle treated controls. The strain used in this assay is mec2-1
Compounds without any hit were thinned out: in the full panel of roughly 79,000, 15% have a hit. Active and inactive are the calls of the source. No stated cut-off is given here; in the data, active means growth inhibition above about 70%; inactive means the rest.
Classes used: active, inactive

>>> label_class("CCOC(=O)/C(=C\\c1ccc(F)cc1)C(C)=O")
"active"
>>> label_class("O=C(C(Cl)=C(N1CCCCC1)N1CCCCC1)C(Cl)Cl")
"inactive"
>>> label_class("CCC(C)COC(=O)Nc1cccc(Cl)c1 (stereo not given)")
"inactive"
>>> label_class("Oc1ccc(N=Nc2ccc(Cl)cc2)cc1")
"active"
>>> label_class("Oc1c2c(c(O)c3ccccc13)C1(N=N2)c2ccccc2Oc2ccccc21")
"active"
>>> label_class("C/C(=N/NC(=S)Nc1ccccc1C)c1ccccn1")
"inactive"
>>> label_class("CC1CCC(C2=CSC3CCCCC3N2)CC1 (stereo not given)")
"inactive"
>>> label_class("N#CCC(=O)N/N=C(\\c1ccccc1)C(c1ccccc1)C1(O)C(=O)Nc2c(Cl)ccc(Cl)c21 (stereo not given)")
"inactive"
>>> label_class("CN(N=O)C(=O)Nc1ccc(C(=O)O)cc1")
"inactive"
>>> label_class("CCCNCC(=O)O[C@]1(CC)C(=O)OCc2c1cc1n(c2=O)Cc2cc3ccccc3nc2-1")
"active"
>>> label_class("COC(=N)c1ccc(O)c(C)c1")
"inactive"
>>> label_class("Cc1ccccc1NC(=O)c1c(C)oc2c1C(=O)c1ccccc1C2=O")
"inactive"
>>> label_class("Cc1ccc(Nc2n[nH]c(=S)s2)c(C)c1")
"inactive"
>>> label_class("CCCCCCCN(CCCCCCC)CC(=O)c1ccc2cc(Cl)c3ccccc3c2c1")
"active"
>>> label_class("COc1cc(NCCCCNCC(C)(C)C)c2ncccc2c1")
"inactive"
>>> label_class("CCCCCCC=C(C(=O)OCC)C(=O)OCC")
"inactive"
>>> label_class("NC(CS)C(=O)NCCNc1ccc(NCCNC(=O)C(N)CS)c2c1C(=O)c1c(O)ccc(O)c1C2=O (stereo not given)")
"inactive"
>>> label_class("CN(C)/C(=N/C(=S)Nc1ccccc1)SCc1ccccc1")
"inactive"
>>> label_class("O=C1Nc2ccc(Br)cc2C1=Nc1cccnc1")
"inactive"
>>> label_class("Cc1ccc(NC(=O)CCC(=O)C(C)C(=O)c2ccccc2)c(C)c1 (stereo not given)")
"inactive"
>>> label_class("O=C(c1cc(=O)c2ccc(O)cc2o1)c1ccc(Cl)cc1Cl")
"inactive"
>>> label_class("COc1ccc2nc(CCc3ccccc3)ccc2c1")
"inactive"
>>> label_class("CC1=CC(C)(C)SC(SSSC2=NC(C)=CC(C)(C)S2)=N1")
"inactive"
>>> label_class("COc1cc(C(=O)C=O)cc(OC)c1OC")
"inactive"
>>> label_class("c1ccc2c(c1)N=C1CCCC3CCCC123 (stereo not given)")
"inactive"
>>> label_class("CN(CCOc1ccc(Cl)cc1)CCOc1ccc(Cl)cc1")
"inactive"
>>> label_class("O=C1C=C(NCCc2cc(Br)c(O)c(Br)c2)C(=O)c2ncccc21")
"inactive"
>>> label_class("O=C1C(=O)N(c2ccccc2)[C@@]2(c3ccccc3)C(=Nc3ccccc3)OC(c3ccccc3)=C12")
"inactive"
>>> label_class("O=C1C(/C=C/c2ccc(Cl)cc2)=NNC2N1N=C1NC(=O)C3(NN12)c1ccccc1-c1ccccc13 (stereo not given)")
"inactive"
>>> label_class("CCOC(=S)SSSC(=S)OCC")
"inactive"

* * *

As shown below, each of these compounds has a reported growth inhibition value.
MEASUREMENT_NOTES: NCI Yeast Anticancer Drug Screen. Data for the rad50 strain (AID 155);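 also: 0% = growth of vehicle-only cultures of the same strain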
CONDITION_CONTEXT: S. cerevisiae rad50 strain growth inhibition; at 11.0 µM; active compounds read high
The panel holds about 79,000 compounds, 15% with a hit somewhere; the sample as a whole holds those more often.
METRIC_NAME: growth inhibition (%)

>>> data_value("CC(C)(CN1CCCCC1)C(=O)CC(SCCS(=O)(=O)O)c1ccccc1 (centres undefined)")
8
>>> data_value("CNC(=S)N/N=C(/C)CCC/C(C)=N/NC(=S)NC")
87
>>> data_value("O=C(Cc1ccccc1)NNc1nc(NNC(=O)c2ccncc2)nc(Nc2ccc([N+](=O)[O-])cc2)n1")
21
>>> data_value("COC1/C=C\\C=C(/C)C(=O)NC2=CC(=O)C(=O)C(=C2O)CC(C)CC(OC)C(O)C(C)/C=C(\\C)C1OC(N)=O (centres undefined)")
94

* * *

MEASUREMENT_NOTES: NCI Yeast Anticancer Drug Screen. Data for the mgt1 strain (AID 153)
CONDITION_CONTEXT: S. cerevisiae mgt1 mutant growth inhibition; at 33.0 µM; active compounds read high
This is part of a sample that, as a whole, favours compounds with a hit. Of some 79,000 tested, about 15% had one in any assay.
Everything with growth inhibition lower than 30% is N; everything else, including exactly 30%, is Y.

>>> label_class("Cc1ccc(S(=O)(=O)N/N=C/C(Br)=C(/Br)C(=O)O)cc1")
"Y"
>>> label_class("CN(N=O)C(=O)Nc1ccc(C(=O)O)cc1")
"N"
>>> label_class("NC(CCCCCCCCCCCCC(N)C(=O)c1ccccc1)C(=O)c1ccccc1 (stereo unspecified)")
"Y"
>>> label_class("CC(C)(CN1CCCCC1)C(=O)CC(SCCS(=O)(=O)O)c1ccccc1 (stereo unspecified)")
"N"
>>> label_class("CCC(C)COC(=O)Nc1cccc(Cl)c1 (stereo unspecified)")
"N"
>>> label_class("CCCCCCNCCCNc1c2ccccc2nc2cccc([N+](=O)[O-])c12")
"Y"
